Data origin, for the record: patent EP4596580A1

molecular target: LIGHT on the surface of HEK293-LIGHT stable cells (human, UniProt O43557 1-240); assay: cell-based or functional assay
Sequence (O43557 whole entry): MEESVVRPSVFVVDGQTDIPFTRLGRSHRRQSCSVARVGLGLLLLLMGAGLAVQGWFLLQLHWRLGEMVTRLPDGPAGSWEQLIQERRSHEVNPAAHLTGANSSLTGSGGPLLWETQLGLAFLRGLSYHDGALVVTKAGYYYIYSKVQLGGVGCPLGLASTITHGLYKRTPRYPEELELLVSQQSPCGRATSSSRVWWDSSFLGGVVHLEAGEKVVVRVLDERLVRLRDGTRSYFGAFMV
property: IC50, LTβR NF-κB luciferase reporter, HEK293-LIGHT cells (µg/mL)

| binder | test-result |
| --- | --- |
| hum_LT-m37-4 (antibody, human IgG4, V domains shown, humanized from LT-m37) VH: QVQLVQSGAEVKKPGASVKVSCKASGYSFTGYFINWVRQAPGQGLEWIGRIYPYNVNTFYNQNFKGRVTMTADKSTSTAYMELSSLRSEDTAVYYCGRGTHYYGSSGAMDYWGQGTLVTVSS VL: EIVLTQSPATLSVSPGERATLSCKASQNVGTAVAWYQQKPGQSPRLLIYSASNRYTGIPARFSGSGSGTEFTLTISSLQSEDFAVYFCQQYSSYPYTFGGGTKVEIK | 2.56 |
| hum_LT-m37-8 (antibody, human IgG4, V domains shown, humanized from LT-m37) VH: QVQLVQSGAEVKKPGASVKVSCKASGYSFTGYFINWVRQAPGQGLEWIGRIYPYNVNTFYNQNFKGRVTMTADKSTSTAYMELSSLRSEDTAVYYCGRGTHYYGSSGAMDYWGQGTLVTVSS VL: EIVMTQSPATLSVSPGERATLSCKASQNVGTAVAWYQQKPGQSPRLLIYSASNRYTGIPARFSGSGSGTEFTLTISSLQSEDFAVYFCQQYSSYPYTFGGGTKVEIK | 3.22 |
| hum_LT-m37-7 (antibody, human IgG4, V domains shown, humanized from LT-m37) VH: QVQLVQSGAEVKKPGASVKVSCKASGYSFTGYFINWVRQAPGQGLEWIGRIYPYNVNTFYNQNFKGRATMTADKSTSTAYMELSSLRSEDTAVYYCGRGTHYYGSSGAMDYWGQGTLVTVSS VL: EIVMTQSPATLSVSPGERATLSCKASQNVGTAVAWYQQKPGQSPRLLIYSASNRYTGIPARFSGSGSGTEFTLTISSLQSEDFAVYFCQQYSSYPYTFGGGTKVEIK | 3.72 |
| hum_LT-m37-12 (antibody, human IgG4, V domains shown, humanized from LT-m37) VH: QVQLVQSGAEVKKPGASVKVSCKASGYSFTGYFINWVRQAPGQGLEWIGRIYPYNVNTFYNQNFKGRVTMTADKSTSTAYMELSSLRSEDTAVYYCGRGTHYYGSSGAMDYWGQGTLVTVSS VL: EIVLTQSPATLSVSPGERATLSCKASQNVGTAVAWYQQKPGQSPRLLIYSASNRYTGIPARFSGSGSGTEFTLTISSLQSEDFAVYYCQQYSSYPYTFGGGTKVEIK | 2.57 |
| hum_LT-m37-3 (antibody, human IgG4, V domains shown, humanized from LT-m37) VH: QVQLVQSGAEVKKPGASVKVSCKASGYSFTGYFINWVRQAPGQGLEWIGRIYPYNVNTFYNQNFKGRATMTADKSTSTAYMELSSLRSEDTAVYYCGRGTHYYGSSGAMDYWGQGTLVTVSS VL: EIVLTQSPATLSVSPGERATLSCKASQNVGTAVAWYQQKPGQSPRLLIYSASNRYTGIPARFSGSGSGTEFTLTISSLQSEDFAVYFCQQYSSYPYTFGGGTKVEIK | 1.79 |
